Give concentration of maximal effect for every item shown.
# Tested on: Calvarial osteoblast
# experiment description: Osteogenic activity in rat calvarial osteoblast cells assessed as induction of cell differentiation by measuring alkaline phosphatase activity using pNPP as substrate by calorimetric analysis
# Assay type: functional, cell-based
Numbers only, in µM.

Below: 5 compounds and their reported concentration of maximal effect.
compound | tested system | concentration of maximal effect [µM]
COC1=CC(=O)c2cc(-c3ccccc3)c3cc(O)c(OC)cc3c2C1=O [LATINONE] | Calvarial osteoblast | 1
C=CC(c1ccccc1)c1cc(O)c(OC)cc1OC (stereo unspecified) [DALBERGIPHENOL] | Calvarial osteoblast | 0.01
COc1cc2oc(=O)cc(-c3ccccc3)c2cc1O [DALBERGIN] | Calvarial osteoblast | 1e-06
COc1cc2c(cc1O)C(c1ccccc1)=CCO2 | Calvarial osteoblast | 0.01
COc1cc2oc(=O)cc(-c3ccccc3)c2cc1OC | Calvarial osteoblast | 1

API: the following record is the query input.
## Input Quick one: concentration of maximal effect for COc1cc(OC)c(/C(=C/C=O)c2ccccc2)cc1O ?
## Output 0.0001

Reference for the values: ChEMBL document CHEMBL3286365
